Parameter: growth. Scope: all listed entries.
Tested on: E. coli TESEC Mtb Asd
Assay: growth (OD600 after 10 h); higher = more growth (less inhibition)
Details: arabinose induction (level): Low; compound 0.1 mM; raw OD600 reference: median of DMSO wells 0.417, cell-free background 0.041
// keep it numeric: no unit symbol after the value

CCCCCCCCNC(C)C(O)c1ccc(SC(C)C)cc1 (stereo not given) ... 0.162

Can you share its growth? I mean this molecule: `C[C@]12CC[C@@H]3c4ccc(O)cc4CC[C@H]3[C@@H]1C[C@@H](O)[C@@H]2O`
0.264

Given the molecule `CC=CC(=O)N(CC)c1ccccc1C` , what is its reported growth?
0.467

Dear colleague, I am looking for the recorded growth of the following molecule: `O=C(CCCN1CCC(O)(c2ccc(Cl)cc2)CC1)c1ccc(F)cc1`
0.452

Reported growth, molecule CCN(CC)CC#CCOC(=O)C(O)(c1ccccc1)C1CCCCC1 (stereo not given) [Oxybutynin chloride] : ____
0.191
